targetOrTestSystem: Progesterone receptor (Homo sapiens)
Sequence (P06401 whole entry): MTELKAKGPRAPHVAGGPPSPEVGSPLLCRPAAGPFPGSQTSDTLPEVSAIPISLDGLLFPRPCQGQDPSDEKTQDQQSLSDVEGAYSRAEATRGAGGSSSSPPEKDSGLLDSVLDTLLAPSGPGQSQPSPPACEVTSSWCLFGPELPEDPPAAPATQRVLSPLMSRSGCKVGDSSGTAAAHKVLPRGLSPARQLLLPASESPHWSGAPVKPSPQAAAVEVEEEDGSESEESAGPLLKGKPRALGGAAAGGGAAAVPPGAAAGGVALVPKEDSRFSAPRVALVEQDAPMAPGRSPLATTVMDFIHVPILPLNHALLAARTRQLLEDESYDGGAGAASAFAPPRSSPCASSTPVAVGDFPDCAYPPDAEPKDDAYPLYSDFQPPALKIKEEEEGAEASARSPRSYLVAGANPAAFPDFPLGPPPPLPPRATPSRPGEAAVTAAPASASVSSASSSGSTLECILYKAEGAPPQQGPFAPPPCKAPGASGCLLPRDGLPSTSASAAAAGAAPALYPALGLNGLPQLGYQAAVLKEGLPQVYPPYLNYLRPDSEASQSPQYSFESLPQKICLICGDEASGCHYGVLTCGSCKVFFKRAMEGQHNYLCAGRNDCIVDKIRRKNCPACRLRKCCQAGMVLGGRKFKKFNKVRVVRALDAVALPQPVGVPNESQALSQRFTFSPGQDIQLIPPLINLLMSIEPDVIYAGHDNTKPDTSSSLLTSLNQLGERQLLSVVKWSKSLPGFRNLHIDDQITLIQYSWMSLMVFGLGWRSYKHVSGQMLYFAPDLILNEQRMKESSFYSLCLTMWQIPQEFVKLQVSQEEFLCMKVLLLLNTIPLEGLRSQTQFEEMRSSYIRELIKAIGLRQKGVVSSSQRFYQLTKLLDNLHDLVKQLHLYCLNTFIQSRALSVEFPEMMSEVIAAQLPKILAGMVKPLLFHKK
Before we begin, note that these IC50 values for Progesterone receptor (Homo sapiens) originate from several publications.
observable: IC50 (nM)

(I) CC#C[C@]1(O)CC[C@H]2[C@@H]3CCC4=CC(=O)CCC4=C3[C@@H](c3ccc(N(C)C[C@@H](O)C[C@@H](O)CC(=O)O)cc3)C[C@@]21C
(II) CC(C)CNS(=O)(=O)c1ccc(-c2ccc3c(cnn3-c3ccc(F)cc3)c2)c(C(F)(F)F)c1
(III) C=CCSCC1=CC(C)(C)Nc2ccc(-c3cc(F)ccc3OC)cc21
(IV) O=S(=O)(NC(Cc1c[nH]c2ccccc12)C(F)(F)F)c1c(Cl)cc(Cl)cc1Cl (stereo not drawn)
Prompt: Give the descending IC50 ranking for the 4 compounds listed above. Return value: ordered labels per request.
Response: IV, III, II, I

(a) Cc1cccc(CC(O)(CC(C)(C)c2cc(F)ccc2O)C(=O)Nc2ccc3c(c2)COC3=O)c1 (stereo not drawn)
(b) COc1ccc(F)cc1C(C)(C)C[C@@](O)(Cc1cc2cnccc2[nH]1)C(F)(F)F
Prompt: I'm curious whether a or b has the smaller IC50 number. Which is it? Respond using the label that marks the chosen record.
Response: a

====

targetOrTestSystem: UniProtKB P06401
Sequence (P06401 whole entry): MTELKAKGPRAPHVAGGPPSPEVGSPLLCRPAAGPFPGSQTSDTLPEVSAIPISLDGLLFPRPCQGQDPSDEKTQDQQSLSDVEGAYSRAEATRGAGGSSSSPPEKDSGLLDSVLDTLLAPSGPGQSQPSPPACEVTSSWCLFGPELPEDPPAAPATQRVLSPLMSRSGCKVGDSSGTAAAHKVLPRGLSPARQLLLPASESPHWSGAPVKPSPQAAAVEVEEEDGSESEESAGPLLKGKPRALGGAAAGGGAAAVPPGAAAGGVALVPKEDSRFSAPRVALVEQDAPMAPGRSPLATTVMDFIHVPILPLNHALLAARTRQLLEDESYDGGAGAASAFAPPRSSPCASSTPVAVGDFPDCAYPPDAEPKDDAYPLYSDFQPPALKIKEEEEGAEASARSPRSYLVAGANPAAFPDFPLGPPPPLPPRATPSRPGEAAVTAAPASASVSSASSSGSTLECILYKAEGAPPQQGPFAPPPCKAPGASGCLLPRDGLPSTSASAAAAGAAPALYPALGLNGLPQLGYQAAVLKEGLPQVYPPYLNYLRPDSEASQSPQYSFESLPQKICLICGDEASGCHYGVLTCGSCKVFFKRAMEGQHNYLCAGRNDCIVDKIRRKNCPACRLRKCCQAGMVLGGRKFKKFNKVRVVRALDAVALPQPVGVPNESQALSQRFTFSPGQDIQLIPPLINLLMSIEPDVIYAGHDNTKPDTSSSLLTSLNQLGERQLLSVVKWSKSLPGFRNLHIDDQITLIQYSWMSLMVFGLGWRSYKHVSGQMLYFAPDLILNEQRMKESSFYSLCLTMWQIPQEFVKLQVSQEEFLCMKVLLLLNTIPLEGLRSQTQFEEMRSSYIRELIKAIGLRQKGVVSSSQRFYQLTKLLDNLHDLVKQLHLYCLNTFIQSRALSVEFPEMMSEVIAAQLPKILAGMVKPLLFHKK
Before we begin, note that these IC50 values for UniProtKB P06401 originate from several publications.
observable: IC50 (nM)

COc1ccc(F)cc1C(C)(C)CC(O)(Cc1cc2cnccc2[nH]1)C(C)(C)C (stereo not given)
790

(a) COc1ccccc1-c1ccc2c(c1)C(C(C)OCCc1ccc(Cl)cc1)=CC(C)(C)N2 (stereo not given)
(b) CCC(Cc1ccccc1C)NS(=O)(=O)c1c(C)cc(C)cc1C (stereo not given)
(c) Cc1c(C#N)c(N)nc2c3c(sc12)NC(=O)CC3c1ccccc1Cl (stereo not given)
Prompt: Number of molecules to sort: 3. Sort criterion: IC50, ascending. Return value: ordered labels per request.
Response: c, a, b
